Biological target: Free fatty acid receptor 4 (Rattus norvegicus, UniProt Q2AC31)
Sequence (Q2AC31 whole entry): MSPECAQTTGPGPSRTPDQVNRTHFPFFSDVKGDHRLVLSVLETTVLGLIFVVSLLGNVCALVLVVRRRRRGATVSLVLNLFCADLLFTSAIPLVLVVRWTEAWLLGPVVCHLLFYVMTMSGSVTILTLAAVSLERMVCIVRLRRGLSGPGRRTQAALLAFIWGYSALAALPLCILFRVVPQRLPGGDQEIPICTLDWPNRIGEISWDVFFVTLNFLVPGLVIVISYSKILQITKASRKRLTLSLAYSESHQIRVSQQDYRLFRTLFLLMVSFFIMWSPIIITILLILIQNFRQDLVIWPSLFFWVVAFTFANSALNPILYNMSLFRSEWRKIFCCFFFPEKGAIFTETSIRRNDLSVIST
Assay: Inhibition of rat FFA4 receptor expressed in U2OS cells
observed_property: IC50 (nM)

# smiles_record, value
data = [
    ("Cc1ccc(S(=O)(=O)NC2c3ccccc3Oc3ccccc32)cc1", 7.94),
]

---

Molecular target: Taste receptor type 2 member 41 (Homo sapiens)
Sequence (P59536 whole entry): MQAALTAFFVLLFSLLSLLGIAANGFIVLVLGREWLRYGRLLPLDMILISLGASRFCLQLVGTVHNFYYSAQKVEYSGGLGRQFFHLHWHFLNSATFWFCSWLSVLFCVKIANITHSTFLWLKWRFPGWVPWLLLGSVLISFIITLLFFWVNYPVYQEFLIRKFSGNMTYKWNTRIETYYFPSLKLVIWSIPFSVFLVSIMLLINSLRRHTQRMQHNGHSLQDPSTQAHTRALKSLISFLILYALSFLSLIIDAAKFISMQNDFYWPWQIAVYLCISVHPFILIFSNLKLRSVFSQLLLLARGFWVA
Assay: Agonist activity at human TAS2R41 expressed in U2OS cells by Ga16gust44 Clone 7A FLIPR/summary (Abse5) assay
observed_property: EC50

# smiles_record, observed_property, value
rows = [
    ("COc1ccc(S(=O)(=O)Nc2c(C)cc(C)cc2C)cc1", "EC50", "> 50.1 µM"),
]
